System: U-251
TEST_DESCRIPTION: NCI tumour cell line growth inhibition, 48 h
Counter-ions that a name gives are not always drawn. The source made the active and inactive calls. Rule as the data show it: active = GI50 up to about 1.1 µM and inactive = higher.
RESULT_TYPE: GI50

Examples with their reported GI50 follow.
- COMPOUND: "COc1ccc(COCC[C@H](C)OC2OC(CO)C(O)C(O)C2O)cc1 (stereo partly specified)"
  ASSAY_TARGET: "U-251"
  DATA_VALUE: "> 100 µM (inactive)"
- COMPOUND: "Cc1c2cccc-2ccc2c1[nH]c1ccc(Br)cc12"
  ASSAY_TARGET: "U-251"
  DATA_VALUE: "3.21 µM (inactive)"
- COMPOUND: "C=CCOc1ccc2c(C)cc(=O)oc2c1C"
  ASSAY_TARGET: "U-251"
  DATA_VALUE: "54.2 µM (inactive)"
- COMPOUND: "C=CCN(N=O)C(=O)N(CCC)CCCC(NC(C)=O)C(=O)NCc1ccccc1 (stereo unspecified)"
  ASSAY_TARGET: "U-251"
  DATA_VALUE: "> 100 µM (inactive)"
- COMPOUND: "CCc1cccc(CC)c1Nc1nc2c(s1)C(=O)c1ccccc1C2=O"
  ASSAY_TARGET: "U-251"
  DATA_VALUE: "15.8 µM (inactive)"

The recorded GI50 for entry CCCCCC(O)C(O)CCC[C@H](O)[C@H]1CC[C@H]([C@H]2CC[C@H]([C@H](O)CCCCCCCCCCCCC3=C[C@H](C)OC3=O)O2)O1 (stereo partly specified) equals 3.73 µM (inactive)

Kindly note the recorded GI50 for `Cc1ccc(S(=O)(=O)c2ccc(NC(=O)SCCC(=O)O)cc2)cc1` , which is > 100 µM (inactive)

The measured GI50 associated with `Cc1ccccc1NC(=O)Cc1nc2ccccc2s1` reads 11.8 µM (inactive)

Reported GI50 of CCOC(=O)C(NC(=O)Nc1ccccc1)(Nc1cccc(Cl)c1)C(F)(F)F (stereo unspecified) : > 100 µM (inactive)

Just so you know, measured GI50 for N#CC(C(=O)CCC(=O)Nc1cccc(Cl)c1)c1ccccc1 (stereo unspecified) came out at > 100 µM (inactive)

Per the records, this compound ( `Cc1cccc(-c2cc(O)c3c(C)cc(C)nc3n2)c1` ) has GI50 equal to 2.79 µM (inactive)

Memo: `c1ccc(C(/C(=N/c2ccc(Cc3ccc(/N=C(\C(c4ccccc4)c4ccccc4)N4CC4)cc3)cc2)N2CC2)c2ccccc2)cc1` , reported GI50: 12.7 µM (inactive)

Looking up `Oc1cc(CF)nc(S)n1` , I found its GI50 recorded as > 100 µM (inactive)

Input CCN(CC)CCNc1ccc(C)c2sc3ccccc3c(=O)c12 [LUCANTHONE HYDROCHLORIDE] . Output GI50: 2.33 µM (inactive)
